- target or system: KPC-2 (Klebsiella pneumoniae, UniProt Q9F663)
- Construct: made in house; host or cells: E. coli
- run description: biochemical
measured endpoint: IC50 (nM)
Numeric only. Scale: nM

Given Cn1c2c(c3scnc31)C1CN(C2)C(=O)N1OS(=O)(=O)O (stereo not shown) [Example 9] , state its recorded IC50. 26

----------
- target or system: CTX-M-15 (Escherichia coli)
- Construct: made in house; host or cells: E. coli
- run description: biochemical
measured endpoint: pIC50
Recall that pIC50 is obtained by taking minus log10 of the concentration measured in molar.

Given Cn1c2c(c3scnc31)C1CN(C2)C(=O)N1OS(=O)(=O)O (stereo not shown) , state its recorded pIC50. 8.96
